Recorded measurements of inhibition at 1 µM, one per entry
Biological target: native aSyn aggregates in A30P transgenic mouse brain sections (Homo sapiens, UniProt P37840, A30P)
Construct: from tissue; host or cells: brain sections (midbrain and pons as ROI) of A30P transgenic mice, line B6.D2-Tg(Thy1-SNCA*30P)31Pjk
Assay: aSyn in vitro displacement assay ([3H]Example-3 autoradiography)
Assay type: binding, mutant human aSyn gene)
Settings: 1 μM compound; 3 nM [3H]Example-3; A30P transgenic mouse brain sections; read-out: PCT_INHIB A30P @ 1 μM (% displacement of [3H]Example-3)
A number alone suffices; assume %.

Incoming: // query inhibition at 1 µM value for entry N#Cc1ccc(N2CCN(c3ccc(NC(=O)c4ccc(OCCOCCF)cc4)cc3)CC2)nc1 [Example 121]
Outgoing: 87

Incoming: Further, for Cn1cc(C(=O)Nc2ccc(N3CCN(c4ccc(C#N)cc4)CC3)cc2)cn1 [Example 158] ?
Outgoing: 83

Incoming: What do we get for COc1ccc(C(=O)Nc2ccc(N3CCN(c4ccc(F)cc4)CC3)cc2)cc1 [Example 105] ?
Outgoing: 100

Incoming: Repeat for the following compound: N#Cc1ccc(N2CCN(c3ccc(NC(=O)c4ccc(OCCF)cc4)cc3)CC2)nc1 [Example 116]
Outgoing: 81

Incoming: Record: COc1ccc(C(=O)Nc2ccc(N3CCN(c4ccc(C#N)cn4)CC3)cc2)cn1 [Example 171]
Outgoing: 89

Incoming: Repeat for the following compound: N#Cc1ccc(N2CCN(c3ccc(NC(=O)c4ccncn4)cc3)CC2)cc1 [Example 165]
Outgoing: 86

Incoming: Then this compound: COc1ccc(C(=O)Nc2ccc(N3CCN(c4ccccn4)CC3)nc2)c(C)c1 [Example 19]
Outgoing: 81

Incoming: Also check COc1ccc(C(=O)Nc2ccc(N3CCN(c4ccc(C#N)cc4)CC3)cc2)c(C)c1 [Example 168]
Outgoing: 95

Continuing:
Incoming: Return reported inhibition at 1 µM; argument: CN(C)c1ccc(C(=O)Nc2ccc(N3CCN(c4ccccn4)CC3)nc2)cc1 [Example 31]
Outgoing: 90

Incoming: Then this compound: O=C(Nc1ccc(N2CCN(c3ccccn3)CC2)cc1)c1ccn2ccnc2c1 [Example 16]
Outgoing: 87

Incoming: Next compound: COc1ccc(C(=O)Nc2ccc(N3CCN(c4ccc(C#N)nc4)CC3)cc2)cc1 [Example 154]
Outgoing: 98

Incoming: One more compound: CN(C)c1ccc(C(=O)Nc2ccc(N3CCN(c4ccccn4)CC3)nn2)cc1 [Example 36]
Outgoing: 86

Incoming: Input COc1ccc(C(=O)Nc2ccc(N3CCN(c4ccncc4C)CC3)cc2)cc1 [Example 83]
Outgoing: 86

Incoming: Again, but for COc1ccc(C(=O)Nc2ccc(N3CCN(c4ccc(C#N)cc4)CC3)cc2)cc1 [Example 57]
Outgoing: 102

Incoming: And what about the compound COc1ccc(C(=O)Nc2ccc(N3CCN(c4ccccc4C#N)CC3)cc2)cc1 [Example 70] ?
Outgoing: 84

Incoming: Queued: Cc1cccc(C(=O)Nc2ccc(N3CCN(c4ccccn4)CC3)cn2)c1 [Example 54]
Outgoing: 82

====

Target: native aSyn aggregates in A30P transgenic mouse brain sections (Homo sapiens, UniProt P37840, A30P)
Construct: from tissue; host or cells: brain sections (midbrain and pons as ROI) of A30P transgenic mice, line B6.D2-Tg(Thy1-SNCA*30P)31Pjk
Assay: aSyn in vitro displacement assay ([3H]Example-3 autoradiography)
Assay type: binding, mutant human aSyn gene)
Details: 1 μM compound; 3 nM [3H]Example-3; A30P transgenic mouse brain sections; read-out: PCT_INHIB A30P @ 1 μM (% displacement of [3H]Example-3)
Item-by-item account of inhibition at 1 µM
The reply should be a number in %, with the unit left off.

Some compounds with recorded inhibition at 1 µM:
Incoming: Would you kindly share the measured inhibition at 1 µM for COc1ccc(C(=O)Nc2ccc(N3CCN(c4ccc(C#N)cn4)CC3)c(C)c2)cc1 ?
Outgoing: 87

Incoming: What about this compound? COc1ccc(C(=O)Nc2ccc(N3CCN(c4cccc(F)c4)CC3)cc2)cc1
Outgoing: 98

Incoming: Moving on to the next compound: Cc1ccc(C(=O)Nc2cnc(N3CCN(c4ccccn4)CC3)nc2)cc1
Outgoing: 93

Incoming: Next up: COc1cccc(C(=O)Nc2ccc(N3CCN(c4ccc(C#N)cn4)CC3)cc2)n1
Outgoing: 85

Incoming: Also, COc1ccc(C(=O)Nc2ccc(N3CCN(c4cc(C#N)ccn4)CC3)cc2)cc1 please.
Outgoing: 100

---
Incoming: Fill in the blank: the reported inhibition at 1 µM of O=C(Nc1cnc(N2CCN(c3ccccn3)CC2)cn1)c1ccc(N2CCOCC2)cc1 is ____.
Outgoing: 87

Incoming: Here is the next compound: COc1ccc(C(=O)Nc2cnc(N3CCN(c4ccc(C#N)cn4)CC3)nc2)cc1
Outgoing: 86

Incoming: Item: COc1ccc(C(=O)Nc2ccc(N3CCN(c4ccc(OC)cc4)CC3)cc2)cc1
Outgoing: 99

Incoming: Would you kindly repeat that for COc1ccc(C(=O)Nc2ccc(N3CCN(c4ccccn4)CC3)nn2)c(F)c1 ?
Outgoing: 86
